assay.details: clinical
Set-up: species or system human
measurement.context: male, human, in vivo, po, Tmax
Text: Study periods were separated by a minimum of 4 days. […] The standard pharmacokinetic parameters are shown for both dosing conditions in Table 1. This delay is indicative of a slower transit of the drug through the GI tract.
property.name: Tmax (h)
Give bare numbers, in h.

Asked: Provide one value: measured Tmax of `Nc1ccc(C(=O)NCCC(=O)O)cc1`
Given back: 12.7

Every entry's value here was drawn from patent US8921344B2.
